assay: qHTS assay for small molecule antagonists of retinoid X receptor alpha signaling (AID 588546); conditions: HEK293T RXRa-UAS-bla, beta-lactamase ratio, antagonist mode; measured here: W530 green channel, cytotoxicity proxy;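 also: cells stimulated with 9-cis-retinoic acid as agonist; % is scaled to controls: 0 for no effect and ±100 for the full control effect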
Results filed as inconclusive are left out.
parameter: max response (%)
Give a bare numeral; the unit % is implied.

Observe how each entry below is paired with its result.
>>> print(df.to_string())
         molecule  test_value
0       O=C(O)CCl        1.14
1   CCOS(C)(=O)=O        -8.7
2  Cc1ccc(N)cc1Cl       -6.83

Input line: Query (molecule): `CCCCCCCCCCCOC(=O)c1ccccc1C(=O)OCCCCCCCCCCC` ; field requested: max response
Output line: 5.25

Input line: Query (molecule): `Nc1ccc(Cc2ccc(N)c(Cl)c2)cc1Cl` ; field requested: max response
Output line: -5.52

Input line: Query (molecule): `Cc1ccc(N)c(N)c1` ; field requested: max response
Output line: 1.53

Input line: Query (molecule): `O=S(=O)(O)F` ; field requested: max response
Output line: -2.92

Input line: Query (molecule): `C=C(Cl)CSC(=S)N(CC)CC` ; field requested: max response
Output line: -2.71

Input line: Query (molecule): `CCCCCc1cc(O)cc(O)c1` ; field requested: max response
Output line: -2.02

Input line: Query (molecule): `CCCCC#N` ; field requested: max response
Output line: -4.26

Input line: Query (molecule): `CC(C)Br` ; field requested: max response
Output line: 4.33

Input line: Query (molecule): `CCCCNC(=O)n1c(NC(=O)OC)nc2ccccc21` ; field requested: max response
Output line: 3.99

Input line: Query (molecule): `Clc1cc(Cl)c(Cl)c(Cl)c1` ; field requested: max response
Output line: -0.278

Input line: Query (molecule): `C=CCO` ; field requested: max response
Output line: 1.87

Input line: Query (molecule): `CCN(N=O)C(N)=O` ; field requested: max response
Output line: -10.6

Input line: Query (molecule): `O=[N+]([O-])CCO` ; field requested: max response
Output line: 2.49

Input line: Query (molecule): CCOC(=O)C1OC1(C)c1ccccc1 (configuration not stated) ; field requested: max response
Output line: 1.36

---

test: Cell Viability - NIH 3T3 (AID 541); settings: NIH 3T3 cell viability, qHTS;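 also: cells exposed to compound for 40 hours; plate controls were DMSO alone for no effect and tamoxifen positive control for full effect; nearly all actives have a fitted effect of over 25% in size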
Results filed as inconclusive are left out. The source made the active and inactive calls. The call rests on the fitted dose curve; in most records, active means well fitted cell-killing curve with a large enough effect; inconclusive means small, poorly fitted or top-dose-only effect; inactive means flat fitted curve, though single readings scatter.
Pick one: active, inactive

Consider the following illustrative entries.
>>> print(df.to_string())
                       mol     label
0     O=C(O)c1cc(Cl)ccc1Cl  inactive
1                    C=CCO  inactive
2  C=CCc1cc(OC)c2c(c1)OCO2  inactive
3           N#CC(Cl)(Cl)Cl  inactive
4              COc1ccccc1N  inactive
5                     CSSC  inactive
6           ClC(Cl)C(Cl)Cl  inactive
7            Cc1cccc(N)c1C  inactive
8        O=C(Cl)OCc1ccccc1  inactive
9            Cc1ccc(N)cc1N  inactive

Input line: Which outcome was assigned to `OCCCCO` in this test?
Output line: inactive

Input line: Which outcome was assigned to `CCBr` in this test?
Output line: inactive

Input line: Which outcome was assigned to `ClC(Br)Br` in this test?
Output line: inactive

Input line: Which outcome was assigned to `O=[N+]([O-])c1ccccc1-c1ccccc1` in this test?
Output line: inactive

Input line: Which outcome was assigned to `Oc1c(Cl)cccc1Cl` in this test?
Output line: inactive
